test: Rivaroxaban pharmacokinetics in rats, intravenous administration with or without imatinib; type: in vivo; settings: male, Wistar, rat, plasma, 0.4 mg/kg, i.v., n = 5, read-out: t1/2 of rivaroxaban (converted)
measurementType: half-life (h)
Numeric answer only, unit h assumed.

The molecule listed as O=C(NC[C@H]1CN(c2ccc(N3CCOCC3=O)cc2)C(=O)O1)c1ccc(Cl)s1 [Rivaroxaban] has a reported half-life of 2.44

###

molecular target: BCRP (Homo sapiens); experiment: Bidirectional transport of rivaroxaban, ABCG2-MDCK vs mock-MDCK; settings: human, pH 7.4
measurementType: Km at 2 h
Answer with the figure and its unit, nothing else.

The molecule listed as O=C(NC[C@H]1CN(c2ccc(N3CCOCC3=O)cc2)C(=O)O1)c1ccc(Cl)s1 has a reported Km at 2 h of 3.46 µM

###

target: P-gp (Homo sapiens, UniProt P08183); test: Bidirectional transport of rivaroxaban, MDR1-MDCK vs mock-MDCK; conditions: human, MDCK, pH 7.4
Sequence (P08183 whole entry): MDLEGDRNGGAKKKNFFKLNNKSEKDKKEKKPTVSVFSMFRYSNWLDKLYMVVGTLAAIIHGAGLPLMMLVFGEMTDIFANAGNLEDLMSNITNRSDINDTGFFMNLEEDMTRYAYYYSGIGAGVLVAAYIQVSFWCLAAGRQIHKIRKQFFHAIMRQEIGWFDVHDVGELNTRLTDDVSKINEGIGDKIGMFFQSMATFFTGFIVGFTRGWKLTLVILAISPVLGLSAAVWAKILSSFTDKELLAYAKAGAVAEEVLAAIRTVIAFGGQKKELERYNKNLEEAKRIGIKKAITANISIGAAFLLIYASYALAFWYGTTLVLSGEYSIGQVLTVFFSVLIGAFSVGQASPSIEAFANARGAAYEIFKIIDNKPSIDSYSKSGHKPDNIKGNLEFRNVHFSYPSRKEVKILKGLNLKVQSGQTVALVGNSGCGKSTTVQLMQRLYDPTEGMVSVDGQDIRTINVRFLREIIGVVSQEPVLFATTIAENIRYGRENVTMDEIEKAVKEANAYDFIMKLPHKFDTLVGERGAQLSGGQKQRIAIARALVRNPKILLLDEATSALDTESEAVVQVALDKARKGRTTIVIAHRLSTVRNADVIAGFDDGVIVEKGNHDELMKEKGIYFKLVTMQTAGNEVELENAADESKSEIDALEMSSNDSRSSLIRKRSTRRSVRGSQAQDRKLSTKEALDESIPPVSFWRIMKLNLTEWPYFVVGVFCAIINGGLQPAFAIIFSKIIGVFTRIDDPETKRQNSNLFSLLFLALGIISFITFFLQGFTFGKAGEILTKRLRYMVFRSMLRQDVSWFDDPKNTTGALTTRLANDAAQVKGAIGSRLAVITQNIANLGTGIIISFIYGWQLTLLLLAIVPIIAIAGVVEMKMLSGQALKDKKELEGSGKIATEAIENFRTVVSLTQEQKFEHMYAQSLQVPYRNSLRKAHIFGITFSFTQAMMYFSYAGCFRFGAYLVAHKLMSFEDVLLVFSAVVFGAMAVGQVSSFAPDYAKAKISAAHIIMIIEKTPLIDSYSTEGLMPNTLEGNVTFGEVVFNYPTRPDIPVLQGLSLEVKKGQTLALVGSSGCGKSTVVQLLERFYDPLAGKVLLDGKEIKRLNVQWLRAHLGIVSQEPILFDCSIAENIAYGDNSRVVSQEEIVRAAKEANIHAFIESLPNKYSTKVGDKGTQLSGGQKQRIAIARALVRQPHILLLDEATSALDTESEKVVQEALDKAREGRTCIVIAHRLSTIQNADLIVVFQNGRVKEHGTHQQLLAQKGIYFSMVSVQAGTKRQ
measurementType: Km at 2 h (µM)
Numeric answer only, unit µM assumed.

Value (Km at 2 h, P-gp (Homo sapiens, UniProt P08183)) for record O=C(NC[C@H]1CN(c2ccc(N3CCOCC3=O)cc2)C(=O)O1)c1ccc(Cl)s1 [Rivaroxaban] = 8.42

###

assay: Rivaroxaban pharmacokinetics in rats, oral administration with or without TKIs; format: in vivo, Wistar rats; conditions: male, Wistar, rat, plasma, po, rivaroxaban 2.1 mg/kg, n = 5
measurementType: Cmax (ng/mL)
Numeric answer only, unit ng/mL assumed.

The compound listed as O=C(NC[C@H]1CN(c2ccc(N3CCOCC3=O)cc2)C(=O)O1)c1ccc(Cl)s1 has a reported Cmax of 130

###

tested on: rivaroxaban metabolism in HLM; experiment: Inhibition of rivaroxaban metabolism in HLM incubation; type: in vitro ADME; settings: human, pooled human liver microsomes, probe rivaroxaban (concentration chosen from Km, 22.81 μM for HLM), HLM 0.3 mg/mL, main metabolite formation, five independent experiments, read-out: IC50 of TKI inhibition of rivaroxaban metabolism, HLM
measurementType: IC50 at 60 min (µM)
Numeric answer only, unit µM assumed.

CCN(CC)CCNC(=O)c1c(C)[nH]c(/C=C2\C(=O)Nc3ccc(F)cc32)c1C | 84.2

The compound listed as Cc1ccc(NC(=O)c2ccc(CN3CCN(C)CC3)cc2)cc1Nc1nccc(-c2cccnc2)n1 has a reported IC50 at 60 min of 1.7

###

assay: Rivaroxaban pharmacokinetics in rats, intravenous administration with or without imatinib; format: in vivo; details: male, Wistar, rat, plasma, 0.4 mg/kg, i.v., n = 5, read-out: CL of rivaroxaban (converted)
measurementType: clearance (mL/min/kg)
Numeric answer only, unit mL/min/kg assumed.

The compound listed as O=C(NC[C@H]1CN(c2ccc(N3CCOCC3=O)cc2)C(=O)O1)c1ccc(Cl)s1 has a reported clearance of 1.38

###

biological target: P-gp (Homo sapiens, UniProt P08183); assay: in vitro; conditions: human, pH 7.4
measurementType: inhibition at 2 h

The compound listed as Cc1ccc(NC(=O)c2ccc(CN3CCN(C)CC3)cc2)cc1Nc1nccc(-c2cccnc2)n1 [Imatinib] has a reported inhibition at 2 h of ~20%

###

biological target: BCRP (Homo sapiens, UniProt Q9UNQ0); test: in vitro; conditions: human, pH 7.4
Sequence (Q9UNQ0 whole entry): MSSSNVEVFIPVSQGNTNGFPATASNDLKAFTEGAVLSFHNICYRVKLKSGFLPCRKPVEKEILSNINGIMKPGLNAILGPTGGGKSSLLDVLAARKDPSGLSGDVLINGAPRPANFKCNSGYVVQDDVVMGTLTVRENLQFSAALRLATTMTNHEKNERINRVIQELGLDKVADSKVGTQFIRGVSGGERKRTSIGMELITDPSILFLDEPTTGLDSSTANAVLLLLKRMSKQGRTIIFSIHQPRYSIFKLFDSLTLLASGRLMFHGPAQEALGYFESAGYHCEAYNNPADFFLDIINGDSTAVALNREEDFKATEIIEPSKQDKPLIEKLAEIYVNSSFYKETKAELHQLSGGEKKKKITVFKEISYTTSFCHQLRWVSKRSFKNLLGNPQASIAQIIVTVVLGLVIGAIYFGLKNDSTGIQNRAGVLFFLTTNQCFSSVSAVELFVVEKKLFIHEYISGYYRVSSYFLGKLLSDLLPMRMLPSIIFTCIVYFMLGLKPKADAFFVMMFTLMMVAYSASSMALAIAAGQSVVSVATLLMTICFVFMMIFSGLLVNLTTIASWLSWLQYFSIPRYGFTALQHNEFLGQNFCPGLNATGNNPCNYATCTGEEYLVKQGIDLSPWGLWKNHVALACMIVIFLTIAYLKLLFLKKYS
measurementType: inhibition at 2 h, 5 µM

The molecule listed as Cc1ccc(NC(=O)c2ccc(CN3CCN(C)CC3)cc2)cc1Nc1nccc(-c2cccnc2)n1 has a reported inhibition at 2 h, 5 µM of > 50%

###

experiment: Rivaroxaban pharmacokinetics in rats, intravenous administration with or without imatinib; format: in vivo; conditions: male, Wistar, rat, plasma, 0.4 mg/kg, i.v., n = 5
measurementType: Cmax
Answer with the figure and its unit, nothing else.

The molecule listed as O=C(NC[C@H]1CN(c2ccc(N3CCOCC3=O)cc2)C(=O)O1)c1ccc(Cl)s1 [Rivaroxaban] has a reported Cmax of 3940 ng/mL

###

Test: Rivaroxaban pharmacokinetics in rats, intravenous administration with or without imatinib
Type: in vivo
Conditions: male, Wistar, rat, plasma, 0.4 mg/kg, i.v., n = 5
Description: The LC-MS/MS method was used to quantitatively determine rivaroxaban for cell and animal experiments. […] To further investigate the DDI risk between rivaroxaban and the TKIs, the pharmacokinetic parameters were measured in Wistar rats (male, 160–200 g). […] All pharmacokinetic parameters in the present study were analyzed using the Drug and Statistics software (DAS 2.0, Windows). […] The transport of rivaroxaban was assessed to determine apparent Michaelis–Menten constants (Km,app). […]
measurementType: AUC(0-t) (ng·h/mL)
Numeric answer only, unit ng·h/mL assumed.

The molecule listed as O=C(NC[C@H]1CN(c2ccc(N3CCOCC3=O)cc2)C(=O)O1)c1ccc(Cl)s1 [Rivaroxaban] has a reported AUC(0-t) of 4650
